- test.system: PPARδ (Homo sapiens)
- Construct: fused to amino acids 147-441 of PPARδ downstream of CMV promoter; expressed in transfected cells; host or cells: HEK293 cells, transiently transfected with pFACMV-PPARδ using Fugene
- Sequence (Q03181 147-441): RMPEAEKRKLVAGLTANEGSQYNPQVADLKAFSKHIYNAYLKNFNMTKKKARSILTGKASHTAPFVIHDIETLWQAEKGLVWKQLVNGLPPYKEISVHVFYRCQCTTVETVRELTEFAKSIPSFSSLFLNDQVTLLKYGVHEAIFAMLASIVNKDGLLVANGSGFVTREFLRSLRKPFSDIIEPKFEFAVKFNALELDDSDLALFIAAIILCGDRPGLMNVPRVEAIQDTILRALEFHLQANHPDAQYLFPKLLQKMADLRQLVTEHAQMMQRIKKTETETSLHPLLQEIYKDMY
- assay.explanation: Transactivation assay (PPARδ GAL4 assay) in transiently transfected HEK293 cells
- Format: cell-based
- test.context: luciferase reporter, Table 1
Listed next: entries and their corresponding EC50.

The examples below pair each entry with its known result.
1) CCc1cc(C(=O)c2ccc(OC(C)C)cc2)c(NC(=O)CSCC(=O)O)s1 : 100 to 1000 nM
2) CCc1cc(C(=O)c2ccccc2)c(NC(=O)CC2(CC(=O)O)CCCC2)s1 : 1000 to 30000 nM
3) CCc1cc(C(=O)c2ccc(OC(F)(F)F)cc2)c(NC(=O)CSC(C)(C)C(=O)O)s1 : < 100 nM

Could you now consider this next compound?
**Q:** Request the reported EC50 associated with `CCc1cc(C(=O)c2ccc(OC)nc2)c(NC(=O)CC2(CC(=O)O)CCCC2)s1`
**A:** 1000 to 30000 nM
